# study.system: Estrogen receptor (Homo sapiens) (UniProt P03372)
# Sequence (P03372 whole entry, looked up): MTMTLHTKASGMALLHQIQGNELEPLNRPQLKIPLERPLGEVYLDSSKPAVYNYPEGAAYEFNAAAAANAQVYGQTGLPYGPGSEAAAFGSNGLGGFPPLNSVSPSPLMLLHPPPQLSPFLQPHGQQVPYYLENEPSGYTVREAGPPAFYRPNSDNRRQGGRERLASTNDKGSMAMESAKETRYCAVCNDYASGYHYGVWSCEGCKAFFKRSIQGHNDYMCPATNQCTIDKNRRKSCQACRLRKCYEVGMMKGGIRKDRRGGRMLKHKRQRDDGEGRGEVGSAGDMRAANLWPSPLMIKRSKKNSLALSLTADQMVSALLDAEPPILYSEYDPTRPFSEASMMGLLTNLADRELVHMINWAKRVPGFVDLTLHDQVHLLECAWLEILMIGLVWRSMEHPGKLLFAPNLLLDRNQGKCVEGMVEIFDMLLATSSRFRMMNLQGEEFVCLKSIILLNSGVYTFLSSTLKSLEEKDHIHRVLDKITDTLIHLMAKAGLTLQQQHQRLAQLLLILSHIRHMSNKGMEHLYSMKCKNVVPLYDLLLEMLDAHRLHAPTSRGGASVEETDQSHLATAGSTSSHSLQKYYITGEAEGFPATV
# experimental.details: ATG_ERa_TRANS: Attagene TRANS-FACTORIAL HepG2 Assay for human Estrogen Receptor alpha (ERa) (AID 2282970)
# assay.context: HepG2 Attagene TRANS ERa GAL4 reporter, mRNA
Records with an inconclusive call do not appear. The source made the active and inactive calls. The calls were made as follows: active = hit-call score of the fitted dose curve at least 0.9, where 1 is the maximum; inconclusive = response in the unintended direction; inactive = score below 0.9.
Outcomes: T = active, F = inactive

- compound: "CCCCc1ccccc1"
  label.class: "F"
- compound: "ClC(Cl)=C(c1ccc(Cl)cc1)c1ccccc1Cl"
  label.class: "T"
- compound: "O=C(O)C(F)(F)OC(F)(F)C(F)(F)OC(F)(F)C(=O)O"
  label.class: "F"
- compound: "O=C(O)C1C(C(=O)O)C2(Cl)C(Cl)=C(Cl)C1(Cl)C2(Cl)Cl (configuration not stated)"
  label.class: "F"
- compound: "c1ccc(OP(Oc2ccccc2)Oc2ccccc2)cc1"
  label.class: "T"
- compound: "CC(=O)CCc1ccc2c(c1)OCO2"
  label.class: "F"
- compound: "N#Cc1c(-c2ccc(Cl)cc2)[nH]c(C(F)(F)F)c1Br"
  label.class: "F"
- compound: "O=S(=O)(F)C(F)(F)C(F)(F)C(F)(F)C(F)(F)C(F)(F)C(F)(F)C(F)(F)C(F)(F)F"
  label.class: "F"
- compound: "COP(=O)(O)OC"
  label.class: "F"
- compound: "CCOP(=S)(S)OCC"
  label.class: "F"
- compound: "c1ccc2c(c1)sc1ccccc12"
  label.class: "T"
- compound: "CCCCC(CC)COC(=O)c1c(Br)c(Br)c(Br)c(Br)c1C(=O)OCC(CC)CCCC (configuration not stated)"
  label.class: "F"

====

# experimental.details: APR_HepG2_MicrotubuleCSK_72hr: Apredica 72-hour HepG2 Assay for Microtubule CSK Stabilty (AID 2282919)
# assay.context: HepG2 microtubule cytoskeleton, high-content imaging, actives raise or lower the signal
Calls of active or inactive are those of the source. The calls were made as follows: active = hit-call score of the fitted dose curve at least 0.9, where 1 is the maximum; inactive = score below 0.9.
Outcomes: true (1) (active), false (0) (inactive)

- molecule: "CSC(C)(C)C=NO"
  label.class: "false (0)"
- molecule: "CCC1(c2ccccc2)C(=O)N=C(O)NC1=O (configuration not stated)"
  label.class: "false (0)"
- molecule: "O=P1(N(CCCl)CCCl)NCCCO1 (configuration not stated)"
  label.class: "false (0)"
- molecule: "Cc1cccc(N)c1"
  label.class: "false (0)"
- molecule: "Cc1ccc([N+](=O)[O-])cc1C"
  label.class: "false (0)"
- molecule: "[N-]=[N+]=[N-]"
  label.class: "false (0)"
- molecule: "CCCCN(CCCC)SN(C)C(=O)Oc1cccc2c1OC(C)(C)C2"
  label.class: "true (1)"
- molecule: "ClC1=C(Cl)C2(Cl)C3C(Cl)C(Cl)CC3C1(Cl)C2(Cl)Cl (configuration not stated)"
  label.class: "true (1)"
- molecule: "CCCN(CCC)c1c([N+](=O)[O-])cc(C(C)C)cc1[N+](=O)[O-]"
  label.class: "true (1)"
- molecule: "O=C(O)C(Cl)Cl"
  label.class: "false (0)"
- molecule: "CCNc1nc(Cl)nc(NC(C)(C)C)n1"
  label.class: "false (0)"
- molecule: "CCOP(=S)(Oc1ccc([N+](=O)[O-])cc1)c1ccccc1 (configuration not stated)"
  label.class: "false (0)"
- molecule: "CCOP(=S)(OCC)SCSCC"
  label.class: "false (0)"
- molecule: "CCOS(=O)(=O)OCC"
  label.class: "false (0)"
- molecule: "CC(Cc1ccc(OCC(=O)O)cc1)NCC(O)c1csc(C(F)(F)F)n1 (configuration not stated)"
  label.class: "false (0)"
- molecule: "c1nc[nH]n1"
  label.class: "false (0)"
- molecule: "CCN(CC)c1ccccc1"
  label.class: "false (0)"
